- Measurement parameters: in ethyl acetate, 303.15 K
Observation type: solubility (mole fraction)
Lab note: jot down the number only; don't add units.

Consider the compound shown here: "O=C(O)Cc1ccccc1Cl" What is its recorded solubility (mole fraction)?
0.312

* * *

- Measurement parameters: in toluene, 275.65 K
Observation type: solubility (mole fraction)
Lab note: jot down the number only; don't add units.

Consider the compound shown here: "N=C(Nc1ccccc1)Nc1ccccc1" What is its recorded solubility (mole fraction)?
0.00149

* * *

- Measurement parameters: in n-butanol, 303.15 K
Observation type: solubility (mole fraction)
Lab note: jot down the number only; don't add units.

Consider the compound shown here: "O=C(O)Cc1ccccc1Cl" What is its recorded solubility (mole fraction)?
0.314

* * *

- Measurement parameters: in toluene, 298.15 K
Observation type: solubility (mole fraction)

Consider the molecule shown here: "O=C(O)Cc1ccccc1Cl" What is its recorded solubility (mole fraction)?
0.0778

* * *

- Measurement parameters: in isopropanol, 293.15 K
Observation type: solubility (mole fraction)

Consider the molecule shown here: "O=C(O)Cc1ccccc1Cl" What is its recorded solubility (mole fraction)?
0.298

* * *

- Measurement parameters: in toluene, 288.15 K
Observation type: solubility (mole fraction)
Lab note: jot down the number only; don't add units.

Consider the molecule shown here: "O=C(O)Cc1ccccc1Cl" What is its recorded solubility (mole fraction)?
0.0491

* * *

- Measurement parameters: in 2-butanone, 303.15 K
Observation type: solubility (mole fraction)
Lab note: jot down the number only; don't add units.

Consider the molecule shown here: "O=C(O)Cc1ccccc1Cl" What is its recorded solubility (mole fraction)?
0.462

* * *

- Measurement parameters: in isopropanol, 288.15 K
Observation type: solubility (mole fraction)
Lab note: jot down the number only; don't add units.

Consider the compound shown here: "O=C(O)Cc1ccccc1Cl" What is its recorded solubility (mole fraction)?
0.266

* * *

- Measurement parameters: in isopropanol, 308.15 K
Observation type: solubility (mole fraction)
Lab note: jot down the number only; don't add units.

Consider the molecule shown here: "O=C(O)Cc1ccccc1Cl" What is its recorded solubility (mole fraction)?
0.407

* * *

- Measurement parameters: in water, 318.15 K
Observation type: solubility (mole fraction)
Lab note: jot down the number only; don't add units.

Consider the compound shown here: "O=C(O)Cc1ccccc1Cl" What is its recorded solubility (mole fraction)?
0.00134

* * *

- Measurement parameters: in ethyl acetate, 278.15 K
Observation type: solubility (mole fraction)

Consider the compound shown here: "O=C(O)Cc1ccccc1Cl" What is its recorded solubility (mole fraction)?
0.193

* * *

- Measurement parameters: in cyclohexane, 303.15 K
Observation type: solubility (mole fraction)
Lab note: jot down the number only; don't add units.

Consider the molecule shown here: "O=C(O)Cc1ccccc1Cl" What is its recorded solubility (mole fraction)?
0.00601

* * *

- Measurement parameters: in n-butanol, 308.15 K
Observation type: solubility (mole fraction)

Consider the molecule shown here: "O=C(O)Cc1ccccc1Cl" What is its recorded solubility (mole fraction)?
0.349

* * *

- Measurement parameters: in n-butanol, 293.15 K
Observation type: solubility (mole fraction)

Consider the compound shown here: "O=C(O)Cc1ccccc1Cl" What is its recorded solubility (mole fraction)?
0.247

* * *

- Measurement parameters: in n-propanol, 308.15 K
Observation type: solubility (mole fraction)

Consider the compound shown here: "O=C(O)Cc1ccccc1Cl" What is its recorded solubility (mole fraction)?
0.368

* * *

- Measurement parameters: in n-propanol, 318.15 K
Observation type: solubility (mole fraction)
Lab note: jot down the number only; don't add units.

Consider the molecule shown here: "O=C(O)Cc1ccccc1Cl" What is its recorded solubility (mole fraction)?
0.446

* * *

I'd appreciate it if you could supply solubility (mole fraction) values for the items below.
- Measurement parameters: in n-propanol, 283.15 K
Lab note: jot down the number only; don't add units.

Consider the molecule shown here: "N=C(Nc1ccccc1)Nc1ccccc1" What is its recorded solubility (mole fraction)?
0.0215

Consider the molecule shown here: "O=C(O)Cc1ccccc1Cl" What is its recorded solubility (mole fraction)?
0.21

* * *

- Measurement parameters: in n-propanol, 288.15 K
Observation type: solubility (mole fraction)
Lab note: jot down the number only; don't add units.

Consider the compound shown here: "O=C(O)Cc1ccccc1Cl" What is its recorded solubility (mole fraction)?
0.237

* * *

- Measurement parameters: in toluene, 285.65 K
Observation type: solubility (mole fraction)
Lab note: jot down the number only; don't add units.

Consider the molecule shown here: "N=C(Nc1ccccc1)Nc1ccccc1" What is its recorded solubility (mole fraction)?
0.0024

* * *

- Measurement parameters: in n-butanol, 313.15 K
Observation type: solubility (mole fraction)
Lab note: jot down the number only; don't add units.

Consider the molecule shown here: "O=C(O)Cc1ccccc1Cl" What is its recorded solubility (mole fraction)?
0.387

* * *

- Measurement parameters: in ethyl acetate, 298.15 K
Observation type: solubility (mole fraction)
Lab note: jot down the number only; don't add units.

Consider the compound shown here: "O=C(O)Cc1ccccc1Cl" What is its recorded solubility (mole fraction)?
0.284

* * *

- Measurement parameters: in 2-butanone, 308.15 K
Observation type: solubility (mole fraction)
Lab note: jot down the number only; don't add units.

Consider the compound shown here: "O=C(O)Cc1ccccc1Cl" What is its recorded solubility (mole fraction)?
0.496

* * *

- Measurement parameters: in acetonitrile, 280.65 K
Observation type: solubility (mole fraction)
Lab note: jot down the number only; don't add units.

Consider the compound shown here: "N=C(Nc1ccccc1)Nc1ccccc1" What is its recorded solubility (mole fraction)?
0.011

* * *

- Measurement parameters: in toluene, 283.15 K
Observation type: solubility (mole fraction)
Lab note: jot down the number only; don't add units.

Consider the molecule shown here: "N=C(Nc1ccccc1)Nc1ccccc1" What is its recorded solubility (mole fraction)?
0.00219

Consider the molecule shown here: "O=C(O)Cc1ccccc1Cl" What is its recorded solubility (mole fraction)?
0.0388

* * *

- Measurement parameters: in n-propanol, 275.65 K
Observation type: solubility (mole fraction)

Consider the compound shown here: "N=C(Nc1ccccc1)Nc1ccccc1" What is its recorded solubility (mole fraction)?
0.0171

* * *

- Measurement parameters: in isopropanol, 278.15 K
Observation type: solubility (mole fraction)

Consider the compound shown here: "O=C(O)Cc1ccccc1Cl" What is its recorded solubility (mole fraction)?
0.206

* * *

- Measurement parameters: in acetonitrile, 288.15 K
Observation type: solubility (mole fraction)
Lab note: jot down the number only; don't add units.

Consider the compound shown here: "O=C(O)Cc1ccccc1Cl" What is its recorded solubility (mole fraction)?
0.114

* * *

- Measurement parameters: in isobutanol, 298.15 K
Observation type: solubility (mole fraction)
Lab note: jot down the number only; don't add units.

Consider the molecule shown here: "O=C(O)Cc1ccccc1Cl" What is its recorded solubility (mole fraction)?
0.288

* * *

- Measurement parameters: in 2-butanone, 318.15 K
Observation type: solubility (mole fraction)
Lab note: jot down the number only; don't add units.

Consider the compound shown here: "O=C(O)Cc1ccccc1Cl" What is its recorded solubility (mole fraction)?
0.567

* * *

- Measurement parameters: in acetone, 273.15 K
Observation type: solubility (mole fraction)

Consider the compound shown here: "O=C(O)Cc1ccccc1Cl" What is its recorded solubility (mole fraction)?
0.209

* * *

- Measurement parameters: in isobutanol, 278.15 K
Observation type: solubility (mole fraction)
Lab note: jot down the number only; don't add units.

Consider the compound shown here: "N=C(Nc1ccccc1)Nc1ccccc1" What is its recorded solubility (mole fraction)?
0.0142

Consider the compound shown here: "O=C(O)Cc1ccccc1Cl" What is its recorded solubility (mole fraction)?
0.172

* * *

I'd appreciate it if you could supply solubility (mole fraction) values for the items below.
- Measurement parameters: in acetonitrile, 283.15 K

Consider the molecule shown here: "N=C(Nc1ccccc1)Nc1ccccc1" What is its recorded solubility (mole fraction)?
0.012

Consider the molecule shown here: "O=C(O)Cc1ccccc1Cl" What is its recorded solubility (mole fraction)?
0.0925

* * *

- Measurement parameters: in water, 278.15 K
Observation type: solubility (mole fraction)

Consider the compound shown here: "O=C(O)Cc1ccccc1Cl" What is its recorded solubility (mole fraction)?
0.000186

* * *

I'd appreciate it if you could supply solubility (mole fraction) values for the items below.
- Measurement parameters: in isobutanol, 283.15 K
Lab note: jot down the number only; don't add units.

Consider the compound shown here: "O=C(O)Cc1ccccc1Cl" What is its recorded solubility (mole fraction)?
0.199

Consider the compound shown here: "N=C(Nc1ccccc1)Nc1ccccc1" What is its recorded solubility (mole fraction)?
0.0177

* * *

- Measurement parameters: in n-butanol, 298.15 K
Observation type: solubility (mole fraction)
Lab note: jot down the number only; don't add units.

Consider the molecule shown here: "O=C(O)Cc1ccccc1Cl" What is its recorded solubility (mole fraction)?
0.28

* * *

- Measurement parameters: in cyclohexane, 283.15 K
Observation type: solubility (mole fraction)

Consider the molecule shown here: "O=C(O)Cc1ccccc1Cl" What is its recorded solubility (mole fraction)?
0.00197

* * *

- Measurement parameters: in acetonitrile, 293.15 K
Observation type: solubility (mole fraction)
Lab note: jot down the number only; don't add units.

Consider the compound shown here: "O=C(O)Cc1ccccc1Cl" What is its recorded solubility (mole fraction)?
0.139
